Biological target: Human immunodeficiency virus type 1 protease (Human immunodeficiency virus 1, UniProt Q72874)
Examples of compounds with documented Ki follow.

{"compound-structure-string": "COc1ccc(S(=O)(=O)N(CC(C)C)C[C@@H](O)[C@H](Cc2ccccc2)NC(=O)CN2CCO[C@H](C)C2)cc1", "Ki / µM": 0.0142}
{"compound-structure-string": "CC(C)CN(C[C@@H](O)[C@H](Cc1ccccc1)NCC(=O)N1CCOCC1)S(=O)(=O)c1ccc(N)cc1", "Ki / µM": 0.0228}
{"compound-structure-string": "CC(C)CN(C[C@@H](O)[C@H](Cc1ccccc1)NC(=O)CN1CCO[C@H](C)C1)S(=O)(=O)c1ccc(C(F)(F)F)cc1", "Ki / µM": 0.061}
{"compound-structure-string": "CC(C)CN(C[C@@H](O)[C@H](Cc1ccccc1)NC(=O)CN1CCO[C@H](C)C1)S(=O)(=O)c1ccc(N)cc1", "Ki / µM": 0.0189}
{"compound-structure-string": "CC(C)CN(C[C@@H](O)[C@H](Cc1ccccc1)NCCN1CCOCC1)S(=O)(=O)c1ccc(N)cc1", "Ki / µM": 0.0962}
{"compound-structure-string": "CC(C)CN(C[C@@H](O)[C@H](Cc1ccccc1)NC(=O)OCCN1CCOCC1)S(=O)(=O)c1ccc(C(F)(F)F)cc1", "Ki / µM": 0.00222}
{"compound-structure-string": "CC(C)CN(C[C@@H](O)[C@H](Cc1ccccc1)NCCN1CCOCC1)S(=O)(=O)c1ccc(C(F)(F)F)cc1", "Ki / µM": 0.336}
{"compound-structure-string": "CC(C)CN(C[C@@H](O)[C@H](Cc1ccccc1)NC[C@H](O)CN1CCOCC1)S(=O)(=O)c1ccc(N)cc1", "Ki / µM": 0.197}
{"compound-structure-string": "COc1ccc(S(=O)(=O)N(CC(C)C)C[C@@H](O)[C@H](Cc2ccccc2)NC(=O)CN2CCOCC2)cc1", "Ki / µM": 0.00744}
{"compound-structure-string": "CC(C)CN(C[C@@H](O)[C@H](Cc1ccccc1)NC(=O)OCCN1CCOCC1)S(=O)(=O)c1ccc(N)cc1", "Ki / µM": 0.00086}
{"compound-structure-string": "COc1ccc(S(=O)(=O)N(CC(C)C)C[C@@H](O)[C@H](Cc2ccccc2)NC(=O)N2CCOCC2)cc1", "Ki / µM": 0.00021}
{"compound-structure-string": "CC(C)CN(C[C@@H](O)[C@H](Cc1ccccc1)NC(=O)N1CCOCC1)S(=O)(=O)c1ccc(C(F)(F)F)cc1", "Ki / µM": 0.0168}
{"compound-structure-string": "COc1ccc(S(=O)(=O)N(CC(C)C)C[C@@H](O)[C@H](Cc2ccccc2)NCCN2CCOCC2)cc1", "Ki / µM": 0.25}
{"compound-structure-string": "COc1ccc(S(=O)(=O)N(CC(C)C)C[C@@H](O)[C@H](Cc2ccccc2)NCC(=O)N2CCOCC2)cc1", "Ki / µM": 0.298}
{"compound-structure-string": "COc1ccc(S(=O)(=O)N(CC(C)C)C[C@@H](O)[C@H](Cc2ccccc2)NC(=O)CN2CCO[C@@H](C)C2)cc1", "Ki / µM": 0.00571}
{"compound-structure-string": "CC(C)CN(C[C@@H](O)[C@H](Cc1ccccc1)NC[C@H](O)CN1CCOCC1)S(=O)(=O)c1ccc(C(F)(F)F)cc1", "Ki / µM": 0.651}

* * *

Molecular target: Human immunodeficiency virus type 1 protease (Human immunodeficiency virus 1)
pKi: −log10 of the molar value.
pKi below 7 gives Not met; pKi at or above it gives Met.

{"compound-structure-string": "CC(C)CN(C[C@@H](O)[C@H](Cc1ccccc1)NC(=O)CN1CCOCC1)S(=O)(=O)c1ccc(C(F)(F)F)cc1", "classification": "Met"}
{"compound-structure-string": "CC(C)CN(C[C@@H](O)[C@H](Cc1ccccc1)NC(=O)CN1CCOCC1)S(=O)(=O)c1ccc(N)cc1", "classification": "Met"}
{"compound-structure-string": "CC(C)CN(C[C@@H](O)[C@H](Cc1ccccc1)NC(=O)N1CCOCC1)S(=O)(=O)c1ccc(N)cc1", "classification": "Met"}
{"compound-structure-string": "COc1ccc(S(=O)(=O)N(CC(C)C)C[C@@H](O)[C@H](Cc2ccccc2)NC(=O)OCCN2CCOCC2)cc1", "classification": "Met"}
{"compound-structure-string": "CC(C)CN(C[C@@H](O)[C@H](Cc1ccccc1)NC(=O)CN1CCO[C@@H](C)C1)S(=O)(=O)c1ccc(N)cc1", "classification": "Met"}
{"compound-structure-string": "COc1ccc(S(=O)(=O)N(CC(C)C)C[C@@H](O)[C@H](Cc2ccccc2)NC[C@H](O)CN2CCOCC2)cc1", "classification": "Not met"}

* * *

Tested on: Human immunodeficiency virus 1
Assay: Antiviral activity against VSV-G pseudotyped darunavir-resistant HIV1 NL4-3 in human SupT1 cells infected with supernatants of virus particles extracted from human 293T cells infected with darunavir-resistant HIV1 NL4-3 incubated for 48 hrs assessed as inhibition of late stage viral infection by single-round infection based luciferase reporter assay
Format: functional, organism-based
Conditions: Human immunodeficiency virus 1, NL4-3, 48 h
property-label: EC50 (µM)

{"compound-structure-string": "COc1ccc(S(=O)(=O)N(CC(C)C)C[C@@H](O)[C@H](Cc2ccccc2)NC(=O)OCCN2CCOCC2)cc1", "property-label": "EC50", "scale-unit": "µM", "test-value": 9.5}
{"compound-structure-string": "CC(C)CN(C[C@@H](O)[C@H](Cc1ccccc1)NC(=O)O[C@H]1CO[C@H]2OCC[C@H]21)S(=O)(=O)c1ccc(N)cc1", "property-label": "EC50", "scale-unit": "µM", "test-value": 0.24}
{"compound-structure-string": "COc1ccc(S(=O)(=O)N(CC(C)C)C[C@@H](O)[C@H](Cc2ccccc2)NC(=O)N2CCOCC2)cc1", "property-label": "EC50", "scale-unit": "µM", "test-value": 4.9}

All values here come from ChEMBL document CHEMBL4616700.
